System: TK-10 renal
assay.details: NCI-60 one-dose screen, 48 h
assay.context: 10 µM unless noted
Compounds without any hit were thinned out: in the full panel of roughly 83,000, 20% have a hit. Active and inactive are the calls of the source. The calls were made as follows: active = growth percent below 10; inactive = the rest.
Please answer using one outcome listed in t (active), f (inactive)

Problem: Fill in: this test's call for "COc1cc2c(cc1OCc1ccccc1)C(CC(C)C)=[N+](C)CC2" is ___
Solution: f

Problem: Record lookup: outcome of this test for COP(=O)(OC)C(O)c1ccc(Cl)cc1 (stereo unspecified) ?
Solution: f

Problem: Assay result, entry "Cc1cc(-c2nc3cc(F)ccc3[se]2)cc(F)c1N" — outcome?
Solution: f

Problem: Query: recorded result category for "CCC(C)(C)[C@H](NC(=O)[C@H]1CCCCN1C)C(=O)N(C)[C@H](C[C@@H](OC(C)=O)c1nc(C(=O)N[C@@H](Cc2ccccc2)C[C@H](C)C(=O)O)cs1)C(C)C" in this test
Solution: f

Problem: Hello, I am checking results. What call was entered for "CCn1c2ccccc2c2cc(C(=O)c3ccc(C)c4ccccc34)ccc21" ?
Solution: f

Problem: Please indicate how the test categorized "Nc1cc2nc3ccccc3nc2cc1N" .
Solution: f

Problem: Record lookup: outcome of this test for "COC(=O)[C@@H](C)C[C@H](Cc1ccccc1)NC(=O)c1csc(CC[C@H](C(C)C)N(C)C(=O)[C@@H](NC(=O)[C@H]2CCCCN2C)C(C)C)n1" ?
Solution: f

Problem: Called result for "N#C[Se]CCN1C(=O)c2ccccc2C1=O"
Solution: f

Problem: Hello, I am checking results. What call was entered for CCCCCCCCCCCCCCCCCC1OC[C@H](COC(=O)O[C@@H](C(=O)O[C@H]2C[C@@]3(O)[C@@H](OC(=O)c4ccccc4)[C@@H]4[C@]5(OC(C)=O)CO[C@@H]5C[C@H](O)[C@@]4(C)C(=O)[C@H](OC(C)=O)C(=C2C)C3(C)C)[C@@H](NC(=O)c2ccccc2)c2ccccc2)O1 (stereo partly specified) ?
Solution: f

Problem: Tell me the recorded outcome of this test for "CS(=O)(=O)CCN1CC2CCCC(C2)C1" .
Solution: f

Problem: Dear all, I need the recorded test outcome for O=C(CC1(O)C(=O)Nc2ccccc21)c1ccc(C(=O)NCC2CCC3(CC2)OOC2(CCCCC2)OO3)cc1 (stereo unspecified) , thank you.
Solution: f

Problem: Status in this test for "Cn1cc(C=O)c2nccnc21" ?
Solution: f

Problem: Which outcome was entered for the compound "CC(=O)O[C@H](C[C@H](C(C)C)N(C)C(=O)[C@@H](NC(=O)[C@H]1CCCCN1C)C(C)(C)C)c1nc(C(=O)N[C@@H](Cc2ccccc2)C[C@H](C)C(=O)O)cs1" in this test?
Solution: f

Problem: Lab log entry: "CC(=O)O[C@H]1CC[C@]2(C)[C@H]3CC[C@]4(C)[C@@H](OC(C)=O)CC[C@H]4[C@@H]3[C@@H](C)[C@]2(O)C1" — outcome as called in the assay?
Solution: f

Problem: # lookup: test call for "CC1=C(CCCOC(=O)[C@H](N)CC(C)C)C2=C(C)C3(CC3)[C@@](C)(O)C(=O)C2=C1"
Solution: t

Problem: Dear colleague, could you share the recorded outcome for "Clc1cccc(NCOOC2(OOCNc3cccc(Cl)c3)CCCCC2)c1" when you have a moment?
Solution: f

Problem: Write down the call the test reported for this compound. Item: CC(C)COC(C[N+](=O)[O-])C(Cl)(Cl)Cl (stereo unspecified)
Solution: f

Problem: How did this test come out for "CC1=C(CNO)C2=C(C)C3(CC3)[C@@](C)(O)C(=O)C2=C1" ?
Solution: t

Problem: Per the records of this test, what outcome belongs to "C=CC1=C[C@@H]2[C@@H]3O[C@]4(CC[C@H](O4)[C@@H](C)C[C@@H](O)C3=O)C[C@H](O)C3=NCC[C@@]32CC1" ?
Solution: t

Problem: Write down the call the test reported for this compound. Item: "COc1cc2c(=O)n(C3CCCCCCC3)c3c4cc[nH]c4ncc3c2cc1OC"
Solution: f

Problem: Hi, sorry to bother you, what did the test record for O=C1Nc2ccccc2C2c3cccn3-c3ccccc3CN12 (stereo unspecified) ?
Solution: f

Problem: // outcome(item) with item = "CN(C)CCCOc1ccc2c(c1)c(C(=O)C(=O)NCCO)cn2Cc1ccccc1"
Solution: f

Problem: Record lookup: outcome of this test for "C/C(=C\c1ccn(-c2ccc(N)c(F)c2)n1)[C@@H]1C[C@@H]2O[C@]2(C)CCC[C@H](C)[C@H](O)[C@@H](C)C(=O)C(C)(C)[C@@H](O)CC(=O)O1" ?
Solution: f

Problem: # lookup: test call for "O=C(CCCC1CCCCC1)OCC(Cl)(Cl)Cl"
Solution: f

Problem: State the result this test recorded for "CCCCCCCC[n+]1ccc2ccccc2c1" .
Solution: f

Problem: Would you mind telling me which call this test gave "Cc1ccc(C(=O)NCCCOc2ccc(N3C(N)=NC(N)=NC3(C)C)cc2Cl)cc1S(=O)(=O)F" ?
Solution: f

Problem: Dear colleague, could you share the recorded outcome for "COc1ccc(/C(C)=C(\c2ccc(OCCN3CCOCC3)cc2)c2ccc(OC(=O)Cc3ccccc3)cc2)cc1" when you have a moment?
Solution: f

Problem: How was "COc1ccc(/C=C\c2cc(OC)c(OC)c(OC)c2)cc1OCC(=O)Nc1nc2ccc(OC(F)(F)F)cc2s1" classified in this test?
Solution: f

Problem: Entry "COC(=O)[C@@H](C)C[C@H](Cc1ccccc1)NC(=O)c1cccc([C@@H](C[C@H](C(C)C)N(C)C(=O)[C@@H](NC(=O)[C@H]2CCCCN2C)C(C)C)OC(C)=O)n1" : call = ?
Solution: f

Problem: Any idea what this test logged for "O=C(Nc1ccncc1F)c1cn(CC2CC2)c2ccccc12" ?
Solution: f

Problem: Any idea what this test logged for "COc1cc(/C=C/[N+](=O)[O-])cc(OC)c1" ?
Solution: t

Problem: For "CCCCCCCCCCCCCC[P+](CCCCCC)(CCCCCC)CCCCCC" , which call appears in the assay record?
Solution: t

Problem: Kindly provide the recorded test outcome for the following compound: C[C@@H]1CCC2[C@@H](C)[C@H](OC(=O)CCC(=O)NCCNC(=O)Cc3cc(=O)oc4cc(N(C)C)ccc34)O[C@@H]3O[C@]4(C)CC[C@@H]1C23OO4 (stereo partly specified)
Solution: f

Problem: What was the test verdict on "CC(=O)/C=C/c1ccc2c(c1)OCO2" ?
Solution: f

Problem: Write down the call the test reported for this compound. Item: "C[C@@]1(CCCCCCCCCc2ccc(O)cc2)C[C@]2(C)OC(=O)C[C@@H]2OO1"
Solution: f

Problem: State the result this test recorded for "c1cnc2[nH]cc(-c3csc(-c4cn(CCCCN5CCOCC5)c5ccccc45)n3)c2c1" .
Solution: f
